Test system: HEK293
assayName: Cytotoxic Profiling of Annotated Libraries Using Quantitative High-Throughput Screening (AID 1296008); note: nearly all actives have a fitted effect of over 60% in size
details: Five cell lines viability, CellTiter-Glo ATP luminescence, 48-72 h
Records with an inconclusive call do not appear. Active and inactive are the calls of the source. Calls come from the whole dose curve; as a rule, active = well fitted inhibition curve with a large enough effect; inconclusive = small, poorly fitted or top-dose-only effect; inactive = flat fitted curve, though single readings scatter.
readoutLabel: outcome

INSERT INTO measurements (compound, measuredresult) VALUES
  ('O=C(O)Cc1cn(-c2ccccc2)nc1-c1ccc(Cl)cc1', 'inactive'),
  ('CCCOC(=O)c1ccc(N)cc1', 'inactive'),
  ('CC(C(=O)O)c1ccc2c(c1)Cc1cccnc1O2 (centres undefined)', 'inactive'),
  ('CCCCCCCCCCCCCCCCN', 'inactive'),
  ('COC(=O)c1cccnc1', 'inactive'),
  ('CCCCCCCCCCC(CO)CCCCCCCC (centres undefined)', 'inactive'),
  ('Cc1cc(NC(=O)C2=C(O)c3ccccc3S(=O)(=O)N2C)no1', 'inactive'),
  ('CC1CC(OC(=O)c2ccccc2O)CC(C)(C)C1 (centres undefined)', 'inactive'),
  ('CNCc1ccccc1', 'inactive'),
  ('CCN(CC)S(=O)(=O)c1ccc(C(=O)O)cc1', 'inactive'),
  ('COc1cc(O)cc(O)c1', 'inactive'),
  ('O=C(Cn1ccnc1[N+](=O)[O-])NCCO', 'inactive'),
  ('NS(=O)(=O)c1cc(-c2nn[nH]n2)c(NCc2cccs2)cc1Cl', 'inactive'),
  ('CC1(C)S[C@@H]2[C@H](NC(=O)C(C(=O)O)c3ccccc3)C(=O)N2[C@H]1C(=O)O (some centres undefined)', 'inactive'),
  ('COC(=O)c1ccccc1C(=O)c1ccc(OCCN2CCCCC2)cc1', 'inactive'),
  ('C[C@@H]1O[C@@H](OC[C@H]2O[C@@H](Oc3c(-c4ccc(O)c(O)c4)oc4cc(O)cc(O)c4c3=O)[C@H](O)[C@@H](O)[C@@H]2O)[C@H](O)[C@H](O)[C@H]1O', 'inactive'),
  ('Cc1cc(O)cc(C)c1Cl', 'inactive'),
  ('COc1ccc(NS(=O)(=O)c2ccc(N)cc2)nn1', 'inactive'),
  ('CC(C)C[C@@H](N)C(=O)O', 'inactive'),
  ('CC(C)=CCC/C(C)=C/CO', 'inactive'),
  ('CCCCCOC(=O)Nc1nc(=O)n([C@@H]2O[C@H](C)[C@@H](O)[C@H]2O)cc1F', 'inactive'),
  ('O=C1C(c2[nH]c3ccccc3c2O)=Nc2ccccc21', 'inactive'),
  ('CCOC(=O)[C@H](CCc1ccccc1)N[C@@H](C)C(=O)N1Cc2cc(OC)c(OC)cc2C[C@H]1C(=O)O', 'inactive'),
  ('CC(C)NC[C@@H](O)COc1ccc(CC(N)=O)cc1', 'inactive'),
  ('C[C@]1(Cn2ccnn2)[C@H](C(=O)O)N2C(=O)C[C@H]2S1(=O)=O', 'inactive'),
  ('CCC(C)(CN(C)C)OC(=O)c1ccccc1 (centres undefined)', 'inactive'),
  ('CC(=O)Nc1ccc(OCCOCCOc2ccc(NC(C)=O)cc2)cc1', 'inactive'),
  ('CC(=O)Nc1ccc(C(=O)O)cc1', 'inactive'),
  ('Cc1ccccc1N=Nc1ccc(N=Nc2c(O)ccc3ccccc23)c(C)c1', 'inactive'),
  ('O=C1CC[C@@H](C(=O)O)N1', 'inactive'),
  ('CC(=O)OCC(=O)[C@@]1(O)CC[C@H]2[C@@H]3CCC4=CC(=O)C=C[C@]4(C)[C@@]3(F)[C@@H](O)C[C@@]21C', 'inactive'),
  ('OC[C@@H](O)[C@@H](O)[C@H](O)[C@H](O)CO', 'inactive'),
  ('C[N+](C)(C)CC[N+]1(C)Cc2c(Cl)c(Cl)c(Cl)c(Cl)c2C1', 'inactive'),
  ('Cc1ccsc1C(=CCCN1CCC[C@@H](C(=O)O)C1)c1sccc1C', 'inactive');
